target: mAChE (Mus musculus, UniProt P21836); assay: Inhibition of mAChE, method of Ellman; type: biochemical; conditions: compound at 100 µM; read-out: mAChE residual activity (RA)
Sequence (P21836 32-614): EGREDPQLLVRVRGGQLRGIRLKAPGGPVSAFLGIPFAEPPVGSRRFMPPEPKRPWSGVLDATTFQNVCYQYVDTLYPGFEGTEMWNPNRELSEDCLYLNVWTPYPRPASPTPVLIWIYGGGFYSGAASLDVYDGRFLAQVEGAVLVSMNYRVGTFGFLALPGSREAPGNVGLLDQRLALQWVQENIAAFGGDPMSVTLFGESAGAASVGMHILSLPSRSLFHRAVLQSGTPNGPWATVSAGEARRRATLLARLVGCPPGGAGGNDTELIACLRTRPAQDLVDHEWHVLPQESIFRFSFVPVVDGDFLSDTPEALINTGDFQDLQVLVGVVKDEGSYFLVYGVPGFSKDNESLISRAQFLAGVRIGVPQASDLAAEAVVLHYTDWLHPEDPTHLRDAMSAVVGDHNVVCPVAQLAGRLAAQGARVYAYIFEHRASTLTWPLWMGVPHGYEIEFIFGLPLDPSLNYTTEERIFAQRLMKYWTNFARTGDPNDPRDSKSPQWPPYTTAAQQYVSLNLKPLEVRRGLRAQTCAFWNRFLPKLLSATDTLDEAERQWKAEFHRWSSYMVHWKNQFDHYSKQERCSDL
Item-by-item account of remaining activity at 100 µM
MEASURED ENDPOINT: remaining activity at 100 µM (%)

[[record]]
compound = "CCN(CC)c1ccc2cc(-c3nc(CN4CCCC(CN(CCN(C)C)C(=O)c5ccc6ccccc6c5)C4)cs3)c(=O)oc2c1 (stereo not drawn) [2C]"
measured_on = "mAChE (Mus musculus, UniProt P21836)"
unit_name = "%"
value = 70

[[record]]
compound = "O=[N+]([O-])c1ccc(N2CCN(Cc3cn(CCOCCN(CC4CCCN(Cc5ccccc5)C4)S(=O)(=O)c4ccc5ccccc5c4)nn3)CC2)c2nonc12 (stereo not drawn) [3D]"
measured_on = "mAChE (Mus musculus, UniProt P21836)"
unit_name = "%"
value = 100

[[record]]
compound = "O=[N+]([O-])c1ccc(N2CCN(CCN(CC3CCCN(Cc4ccccc4)C3)S(=O)(=O)c3ccc4ccccc4c3)CC2)c2nonc12 (stereo not drawn) [3B]"
measured_on = "mAChE (Mus musculus, UniProt P21836)"
unit_name = "%"
value = 97

